protocol-text: Plasma pharmacokinetics, single ascending dose
Type: in vivo, human
measurement-conditions: human, plasma, oral, 400 mg
observed-property: Vd/F (L)
Give bare numbers, in L.

# get_value(readout='Vd/F', item= N#CN1C[C@H](n2nc(-c3ccc(Oc4ccc(Cl)cn4)cc3)c(C(N)=O)c2N)CCC12CC2 [SN1011] )
997

---

protocol-text: Plasma pharmacokinetics, single ascending dose
Type: in vivo, human
measurement-conditions: human, plasma, oral, 800 mg
observed-property: AUC(0-inf) (ng·h/mL)
Give bare numbers, in ng·h/mL.

# get_value(readout='AUC(0-inf)', item= N#CN1C[C@H](n2nc(-c3ccc(Oc4ccc(Cl)cn4)cc3)c(C(N)=O)c2N)CCC12CC2 )
22300
